Biological target: wild-type HIV-1 protease (Human immunodeficiency virus type 1 group M subtype B (isolate HXB2) (HIV-1))
Assay: Assay for inhibition of microbial expressed HIV protease
Details: wild-type HIV-1 protease enzyme
Procedure: The inhibition of WT HIV-1 protease was studied using the reaction of the protease (expressed in Escherichia coli) with a peptide substrate as described in WO 2009/042094. […] The product formation was determined after separation of product and substrate on a ZORBAX® Eclipse XDB-C18 (Agilent Technologies, Palo Alto, Calif.) column connected to an Agilent 1100 high performance liquid chromatography system with fluorescence detection (excitation 270 nanometer and emission 330 nanometer). […]
Item-by-item account of pIC50
# reply with the number alone; pIC50 is -log10 of concentration in mol/L

COC(=O)N[C@H](C(=O)NCC(F)CC[C@@H](CO)N(CCC(C)C)S(=O)(=O)c1ccc(N)cc1)C(c1ccccc1)c1ccccc1 (single isomer, unassigned) [Example 1-2] = 11.00
COC(=O)N[C@H](C(=O)NCC(F)(F)CC[C@@H](CO)N(C1CCC(F)(F)CC1)S(=O)(=O)c1ccc2ncsc2c1)C(c1ccccc1)c1ccccc1 = 8.56
COC(=O)N[C@H](C(=O)NCC(F)(F)CC[C@@H](CO)N(Cc1cn[nH]c1)S(=O)(=O)c1ccc2ncsc2c1)C(c1ccccc1)c1ccccc1 = 9.41
COC(=O)N[C@H](C(=O)NCC(F)CC[C@@H](CO)N(CCC(C)C)S(=O)(=O)c1ccc(N)cc1)C(c1ccccc1)c1ccccc1 (some centres unmarked) [Example 1] = 10.52
COC(=O)N[C@H](C(=O)NCCC(F)C[C@@H](CO)N(C(C)C)S(=O)(=O)c1ccc(N)cc1)C(c1ccccc1)c1ccccc1 (some centres unmarked) = 8.41
COC(=O)N[C@H](C(=O)NCCC(F)(F)C[C@@H](CO)N(C(C)C)S(=O)(=O)c1ccc(N)cc1)C(c1ccccc1)c1ccccc1 = 8.22

QUERY: Give the value of pIC50 reported for the following: COC(=O)N[C@H](C(=O)NCC(F)CC[C@@H](CO)N(CCC(C)C)S(=O)(=O)c1ccc(N)cc1)C(c1ccccc1)c1ccccc1 (single isomer, unassigned) [Example 1-1]
RESULT: 9.62

QUERY: Give the value of pIC50 reported for the following: `COC(=O)N[C@H](C(=O)NCC(F)(F)CC[C@@H](C(N)=O)N(CC1CC(F)(F)C1)S(=O)(=O)c1ccc2ncsc2c1)C(c1ccccc1)c1ccccc1`
RESULT: 9.37

* * *

Item-by-item account of pIC50
Molecular target: wild-type HIV-1 protease (Human immunodeficiency virus type 1 group M subtype B (isolate HXB2) (HIV-1), UniProt P04585)
Experiment: Assay for inhibition of microbial expressed HIV protease
Conditions: wild-type HIV-1 protease enzyme
# reply with the number alone; pIC50 is -log10 of concentration in mol/L

In the examples that follow, each entry is paired with its recorded pIC50.
COC(=O)N[C@H](C(=O)NCCC(F)(F)C[C@@H](CO)N(CC1CC(F)(F)C1)S(=O)(=O)c1ccc2ncsc2c1)C(c1ccccc1)c1ccccc1 = 8.25
CCCCCN([C@H](CO)CCC(F)(F)CNC(=O)[C@@H](NC(=O)OC)C(c1ccccc1)c1ccccc1)S(=O)(=O)c1ccc(CO)cc1 = 10.72

Could you now look at the following molecule, please?
QUERY: Give the value of pIC50 reported for the following: `COC(=O)N[C@H](C(=O)NCC(F)(F)CC[C@@H](CO)N(CC1CC(F)(F)C1)S(=O)(=O)c1ccc2ncsc2c1)C(c1ccccc1)c1ccccc1`
RESULT: 9.23
